- testMethodNotes: Solubility of N-2 in water and solvents
- Assay type: physicochemical
- condition: in water; read-out: aqueous solubility
reportedProperty: solubility

// solubility lookup, compound = Cc1cccc2c1NC(=O)[C@@H](NC(=O)[C@H](CCC(F)(F)F)[C@H](CCC(F)(F)F)C(N)=O)N=C2c1cccc(F)c1 [Compound N-2] , result: < 1 µg/mL
